Listing: Kd of selected binders
Target: T1, FinO (F-like plasmid (Escherichia coli), UniProt P29367 1-186)
T1 sequence: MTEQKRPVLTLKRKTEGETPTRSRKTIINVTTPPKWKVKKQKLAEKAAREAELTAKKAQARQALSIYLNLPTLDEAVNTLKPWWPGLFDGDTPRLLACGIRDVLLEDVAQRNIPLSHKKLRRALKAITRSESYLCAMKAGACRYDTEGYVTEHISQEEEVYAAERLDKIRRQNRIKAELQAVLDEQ
Test: EMSA; 25 mM Tris-HCl pH 7.5, 150 mM NaCl, 5% glycerol, 1 mM MgCl2, 1 nM 32P-RNA, 30 min at room temperature; native 6% PAGE in 0.5x TBE at 4 C
Conditions: protein: recombinant; tags: His6-TEV site (ENLYFQ/S) N-terminal in the expression construct; label: 32P; terminator hairpin
Use nM as the unit, but write only the number.

Example results:
binder	reported.metric	unit.tag	readout.number
malM-FinP (structured_RNA) RNA: GCUUUAUCAGCAGUGUAAAAGGCAAGGGGUAAUUACGCCCCACAGUGCUGAUUUUGCAACAACAGGUGCGUCUCCUGGCGCACCGAUUUU	Kd	nM	86
cspE81-FinP (structured_RNA) RNA: GGCCCUUCUGCUGCAAACGUAAUCGCUCUGUAAGAUACGUCAGCAAGAAUUCAACACCCGCUUAAUCAGCGGGGAUUUU	Kd	nM	88

INPUT: // Input: RepX-malM (structured_RNA) RNA: GCAUUGAUUGCCUCCUUUGCAGGCAGUUGGUGGACUGGCGCUGGCGGGGUCACUACCCCCGCCCUGCGCCUUUUUUU . Output its Kd only.
OUTPUT: 150
